# System: wheat PPO (purified wheat bran polyphenol oxidase)
# Construct: gene PPO-A1; native, purified from wheat bran (ammonium sulfate, DEAE-Sepharose, Superdex G-75); approx. 21 kDa on SDS-PAGE, dual bands 21 and 17 kDa
# EXPERIMENT DESCRIPTION: spectrophotometric oxidation assay at […] nm, Lineweaver-Burk
# Assay type: biochemical, Triticum aestivum
# APPLIED CONDITIONS: 50 mM phosphate pH 6.5, 35 °C, 2-10 mM substrate
QUANTITY KIND: Km
Returns: string containing the numeric result and its unit.

Previously resolved entries follow.
MOLECULE	RESULT
O=C(O)c1cc(O)c(O)c(O)c1 [gallic acid]	7.05 mM
O=C(O[C@@H]1Cc2c(O)cc(O)cc2O[C@@H]1c1ccc(O)c(O)c1)c1cc(O)c(O)c(O)c1 [epicatechin gallate]	7.9 mM
Oc1ccccc1O [catechol]	6.36 mM

Challenge: Query: Km; subject: O=C(O[C@@H]1Cc2c(O)cc(O)cc2O[C@@H]1c1cc(O)c(O)c(O)c1)c1cc(O)c(O)c(O)c1 [epigallocatechin gallate]
Response given: 7.7 mM

Challenge: Value lookup for Km; key = Oc1cc(O)c2c(c1)O[C@H](c1ccc(O)c(O)c1)[C@H](O)C2 [epicatechin]
Response given: 8.01 mM

Challenge: Field request: Km | item: Oc1cccc(O)c1O [pyrogallic acid]
Response given: 7.37 mM

Challenge: May I ask what Km has been recorded for Oc1cc(O)c2c(c1)O[C@H](c1cc(O)c(O)c(O)c1)[C@H](O)C2 [epigallocatechin] ?
Response given: 9.05 mM
